Hi there, I'd appreciate the recorded CC50 at 24 h for every entry that follows.
# procedure-summary: Sulforhodamine B
# Type: cell-based
# experimental-conditions: human

Asked: Consider the compound O=c1c(-c2ccc(O)cc2)coc2cc(O)cc(O)c12 and give its recorded CC50 at 24 h.
Given back: > 20 µM

The record that follows has no CC50 at 24 h shown yet.
Asked: Consider the compound O=c1cc(-c2ccc(O)cc2)oc2cc(O)cc(O)c12 and give its recorded CC50 at 24 h.
Given back: > 20 µM

----------
# tested-system: progesterone receptor ligand binding domain (PR-LBD-GST) (Homo sapiens)
# procedure-summary: Progesterone receptor polarization competitive binding assay
# experimental-conditions: read-out: PR Binding IC50; pure compounds, purified PR
measured-quantity: IC50

Asked: Recall the reported IC50 of COc1ccc(-c2coc3cc(O)cc(O)c3c2=O)cc1 when tested on progesterone receptor ligand binding domain (PR-LBD-GST) (Homo sapiens).
Given back: > 250 µM

----------
# tested-system: progesterone receptor ligand binding domain (PR-LBD-GST) (Homo sapiens)
# Sequence (P06401 675-933): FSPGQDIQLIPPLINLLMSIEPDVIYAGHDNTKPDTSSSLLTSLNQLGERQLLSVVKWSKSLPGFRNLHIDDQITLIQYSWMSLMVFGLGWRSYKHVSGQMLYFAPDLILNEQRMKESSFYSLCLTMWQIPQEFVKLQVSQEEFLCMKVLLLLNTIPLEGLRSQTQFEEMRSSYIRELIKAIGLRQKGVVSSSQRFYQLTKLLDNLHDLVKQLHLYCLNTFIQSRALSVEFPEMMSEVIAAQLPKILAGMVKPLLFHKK
# procedure-summary: Progesterone receptor polarization competitive binding assay
measured-quantity: pIC50
Answers are plain numbers, as −log10 of the molar value.

Asked: Consider the compound O=C1C[C@@H](c2ccc(O)cc2)Oc2cc(O)cc(O)c21 and give its recorded pIC50.
Given back: 5.16

More entries:
Asked: Consider the compound O=c1c(O)c(-c2ccc(O)cc2)oc2cc(O)cc(O)c12 and give its recorded pIC50.
Given back: 5.82

----------
# Tested on: T47D cells
# procedure-summary: Sulforhodamine B
# Format: cell-based
measured-quantity: CC50

Asked: Consider the compound COc1ccc(-c2coc3cc(O)cc(O)c3c2=O)cc1 and give its recorded CC50.
Given back: > 20 µM

----------
# tested-system: progesterone receptor (PR) (Homo sapiens, UniProt P06401)
# Sequence (P06401 679-933 limits assumed): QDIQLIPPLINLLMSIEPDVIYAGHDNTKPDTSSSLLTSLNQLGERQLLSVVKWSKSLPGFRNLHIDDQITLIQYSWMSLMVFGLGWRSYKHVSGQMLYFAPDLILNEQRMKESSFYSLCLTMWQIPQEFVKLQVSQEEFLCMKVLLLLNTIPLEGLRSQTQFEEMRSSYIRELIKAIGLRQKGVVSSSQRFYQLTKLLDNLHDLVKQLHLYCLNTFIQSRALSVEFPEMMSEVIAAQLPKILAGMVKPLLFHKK
# procedure-summary: PRE-luciferase reporter assay in T47D cells
# Format: cell-based
# experimental-conditions: compound 10 μM, T47D cells, over DMSO
measured-quantity: PRE-luciferase Fold increase (10μM) (fold)
Numbers only, in fold.

Asked: Consider the compound O=c1c(O)c(-c2ccc(O)cc2)oc2cc(O)cc(O)c12 [Kaempferol, kaempferol] and give its recorded PRE-luciferase Fold increase (10μM).
Given back: 5.5

For every item in the list below, what is its measured PRE-luciferase Fold increase (10μM)?
1. O=c1c(-c2ccc(O)cc2)coc2cc(O)ccc12 [Daidzein, daidzein]
2. COc1ccc(-c2coc3cc(O)cc(O)c3c2=O)cc1 [Biochanin A, biochanin A]
3. COc1ccc(-c2coc3cc(O)ccc3c2=O)cc1 [Formononetin, formononetin]
4. O=C1C[C@@H](c2ccc(O)cc2)Oc2cc(O)cc(O)c21 [Naringenin, naringenin]
5. O=c1c(-c2ccc(O)cc2)coc2cc(O)cc(O)c12 [Genistein]

Given back:
1: 1.0; 2: 1.0; 3: 1.5; 4: 1.9; 5: 2.2
